Target: T1, Human TIGIT-His (human, UniProt Q495A1 22-141, biotinylated in the ForteBio Fab assay)
T1 construct: bought (Creative Biomart); also called Biotinylated Human TIGIT HIS; TIGIT-His monomer; not shown: His tag
T1 sequence (looked up): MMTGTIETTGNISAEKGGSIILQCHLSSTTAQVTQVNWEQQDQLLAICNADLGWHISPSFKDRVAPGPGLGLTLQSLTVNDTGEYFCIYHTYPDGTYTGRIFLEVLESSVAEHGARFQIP
Assay: ForteBio BLI, Fab KD, monovalent
Exercise: state measured pKd for each of the binders provided.
Answers are plain numbers, as −log10 of the molar value.

Sample records with pKd:
Fab of anti-TIGIT clone 29499 (Fab, V domains shown) VH: QLQLQESGPGLVKPSETLSLTCTVSGGSISSSRYYWAWIRQPPGKGLEWIGSIGTSGSTYYNPSLKSRVTISVDTSKNQFSLKLSSVTATDTAVYYCAIEGANFRDFGYVAFDIWGQGTMVTVSS VL: EIVMTQSPATLSVSPGERATLSCRASQSVSSNLAWYQQKPGQAPRLLIYGASTRATGIPARFSGSGSGTEFTLTISSLQSEDFAVYYCQQSPPWPRTFGGGTKVEIK : 8.78
Fab of anti-TIGIT clone 29520 (Fab, V domains shown) VH: QVQLVESGGGLVQPGRSLRLSCAASGFTFRDYAMHWVRQAPGKGLEWVSGITWNSGLIGYADSVKGRFTISRDNAKNSLYLQMNSLRAEDTALYYCAKPVPRLRGLDVWGQGTMVTVSS VL: DIQLTQSPSSVSASVGDRVTITCRASQGISSWLAWYQQKPGKAPKLLIYGASSLQSGVPSRFSGSGSGTDFTLTISSLQPEDFATYYCQQAFYLPWTFGGGTKVEIK : 8.88

Measured pKd, Fab of anti-TIGIT clone 32931 (Fab, V domains shown, Fab) VH: QLQLQESGPGLVKPSETLSLTCTVSGGSISSGSYYLAWIRQPPGKGLEWIGSIFRSGSTYYNPSLESRVTISVDTSKNQFSLKLSSVTAADTAVYYCAIEGANFKDFGYVAFDIWGQGTTVTVSS VL: EIVMTQSPATLSVSPGERATLSCRASKSVSSNLAWYQQKPGQAPRLLIYFASTRATGIPARFSGSGSGTEFTLTISSLQSEDFAVYYCQQTSPWPRTFGGGTKVEIK : 8.93
